pIC50: −log10 of the molar value.
Header: pIC50 / Hepatocyte growth factor receptor (Homo sapiens, UniProt P08581) / multiple publications

Use the examples below as a reference point.
Cc1c(C(=O)Nc2ccc(Oc3ccnc4cc(OC[C@@H](C)O)ccc34)cc2)c(=O)n(-c2ccccc2)n1C | 7.82
Cc1cc2ncccc2cc1Sc1nnc2ccc(-c3cnn(C)c3)nn12 | > 7.00
COc1cc2c(Oc3c(F)cc(NC(=O)c4cnccc4OC4CC4)cc3F)ccnc2cc1OC[C@@H](C)O | ≥ 7.00
CC(C)n1cc(NC(=O)Nc2ccc(Oc3ccnc(-c4cnn(C)c4)c3)cc2F)c(-c2ccccc2)n1 | > 6.00
CCOC(=O)Nc1cccc(Cn2nc(-c3ccc(C(=O)NCCCCN4CCCC4)cc3)ccc2=O)c1 | 6.00 to 8.00
CN1CCN(CCCOc2cc3nccc(Oc4ccc(NC(=O)c5cn(C)c(=O)n(-c6ccc(F)cc6)c5=O)cc4F)c3c3c2OCCO3)CC1 | ≥ 7.30

Value sought: pIC50, system Hepatocyte growth factor receptor (Homo sapiens, UniProt P08581), item Brc1cnc2ccc(Cc3nnc4nccnn34)cc2c1 . Result: > 7.00

For CNC(=O)c1ccc(-c2ccc3nnc(Cc4ccc5ncccc5c4)n3n2)cc1F on Hepatocyte growth factor receptor (Homo sapiens, UniProt P08581), measured pIC50 was > 7.00

----------
Collected literature values of IC50 measured for Hepatocyte growth factor receptor (Homo sapiens, UniProt P08581).

Reported Hepatocyte growth factor receptor (Homo sapiens, UniProt P08581) IC50 for item COc1ccc(F)cc1C(C)Oc1cc(-c2c(CO)cnn2C)cnc1N (centres unmarked) was > 20000 nM

Per the reported Hepatocyte growth factor receptor (Homo sapiens, UniProt P08581) data, Nc1ncc(-c2cccc(C(=O)NCCCN3CCOCC3)c2)cc1-c1nc2ccccc2s1 has IC50 of 1000 to 20000 nM

// returns IC50 for CCOC(=O)Nc1cccc(Cn2nc(-c3cccc(C(=O)NCCCN)c3)ccc2=O)c1 with Hepatocyte growth factor receptor (Homo sapiens, UniProt P08581); value = 10 to 1000 nM

IC50 of CCOC(=O)Nc1cccc(Cn2nc(-c3cccc(C(=O)NCCCCN(C)C)c3)ccc2=O)c1 , assay on Hepatocyte growth factor receptor (Homo sapiens, UniProt P08581), is 10 to 1000 nM

----------
The compounds below each have a reported IC50 tested on Hepatocyte growth factor receptor (Homo sapiens, UniProt P08581); the values come from various publications.

Looking up O=C(c1ccc(-c2cnc3c(c2)N(C(=O)Cc2cc(F)ccc2F)CCN3)cc1)N1CCC(N2CCCC2)CC1 , I found its IC50 recorded as 10000 to 100000 nM

Record CC(C)c1cc(NC(=O)Nc2ccc(Oc3ccnc(-c4cnn(C)c4)c3)cc2F)n(-c2cccc(F)c2)n1 . Reported IC50: < 100 nM

The compound listed as CC1C(=O)N(C)CCN1Cc1ccc(-c2cc3c(s2)Cc2c(-c4ccc5cnn(C)c5c4)n[nH]c2-3)cc1 (centres unmarked) has a reported IC50 of > 1000 nM

// sample O=C1NC(=O)[C@H](c2cn3c4c(cccc24)[C@@H](O)CC3)[C@H]1c1c[nH]c2ccccc12 , its IC50 was > 30000 nM

Looking up CN1CCN(CCCCOC(=O)Nc2cccc(Cn3nc(-c4cc(F)cc(F)c4)ccc3=O)c2)CC1 , I found its IC50 recorded as 10 to 1000 nM

Sure, the documented IC50 for O=C(Nc1ccc(Oc2ccnc(NC(=O)N3CCCC3)c2)c(F)c1)c1cc2ncsc2n(-c2ccc(F)cc2)c1=O is < 10 nM

Record summary for O=C(NCCN1CCCC1)c1ccc(-c2cnc3c(c2)N(Cc2c(Cl)cccc2Cl)C(=O)CN3)cc1 : reported IC50 = 1000 to 10000 nM

The reported value for O=C(Nc1cn2nc(Cn3nnc4ccc(-c5cccnc5)cc43)ccc2n1)C1CC1 in terms of IC50 is > 100 nM

The value of IC50 measured for the compound Brc1cnc2ccc(Cc3nnc4sc(CN5CCCC5)nn34)cc2c1 turned out to be 100 to 1000 nM

According to the records, this compound CCOC(=O)Nc1cccc(Cn2nc(-c3cccc(CC(=O)NCCCCN(C)C)c3)ccc2=O)c1 displays IC50 of 10 to 1000 nM

----------
Here's a roundup of pIC50 values tested on Hepatocyte growth factor receptor (Homo sapiens), taken from various published works.
pIC50: −log10 of the molar value.

Field: example entries. Status: answers known.
O=C(Nc1cn2nc(Sc3nnc4ccc(-c5cnc(NCCCO)nc5)cn34)ccc2n1)C1CC1 | 6.20 to 6.60
O=C(c1ccccc1)N1CCN(C(=O)c2cnc3c(c2)N(Cc2cc(Cl)ccc2Cl)CCN3)CC1 | 4.00 to 5.00

Reported pIC50 for N=C(N)Cc1nc2cnc3ccc(Cl)cc3c2n1-c1ccccc1Cl was ≥ 6.30

For record CC(c1ccc2ncccc2c1)n1nnc2ncc(-c3ccc(P(C)(C)=O)cc3)nc21 (stereo not shown) the listed pIC50 is > 8.00

Sample C[C@H]1CNC(=O)c2c(N)nn3ccc(nc23)N(CC2CC2)Cc2c(ccc(F)c2C#N)O1 ; pIC50 observed: 8.66

Value of pIC50 reported for the compound CCc1ccc2nnc(Cc3ccc4ncc(-c5cnn(C)c5)cc4c3)n2n1 is > 7.00

For reference, reported pIC50 for COc1ccc(F)cc1C(C)Oc1cc(-c2cc(Cl)nnc2N)cnc1N (stereo not shown) stands at 4.88

Notebook: CC(C)(C)OC(=O)N1CCC(COc2cnc(-c3cccc(Cn4c(=O)sc5ccc(C(F)(F)F)cc54)c3)nc2)CC1 , pIC50 read as 6.00 to 8.00

Field pIC50 (entry COCCOc1cc2nccc(Oc3cc(C(C)C)c(NC(=O)c4cn(C)c(=O)n(-c5ccc(F)cc5)c4=O)cc3F)c2c2c1OCCO2 ) reads 6.30 to 7.30

Quick note, pIC50 for Cc1ccc2nnc(Cc3ccc4ncc(C#N)cc4c3)n2n1 landed at 5.00 to 6.00

Just so you know, measured pIC50 for O=C1CNc2ncc(I)cc2N1Cc1cc(Cl)ccc1Cl came out at < 4.00

The measured pIC50 associated with CNCCOc1cc2nccc(Oc3c(F)cc(NC(=O)c4cncnc4OC4CC4)cc3F)c2cc1OC reads ≥ 7.00

Measured pIC50 of CCN1CC(n2cc(-c3cnc4ccc(C(C)c5nnc6ccc(C)nn56)cc4c3)cn2)C1 (stereo not shown) : > 7.00

Given item CC(C)(C)OC(=O)NCC#Cc1cnc(N)c(-c2nc3ccccc3s2)c1 , the value recorded as its pIC50 is 4.70 to 6.00

Per the record, CC(c1cc(F)ccc1F)N1CCNc2ncc(-c3ccc(C(=O)N4CCC[C@H]4CN4CCCC4)cc3)cc21 (stereo partly shown) has pIC50 of 4.00 to 5.00

// recorded pIC50 for CCC1CCCCN1S(=O)(=O)c1ccc(-c2ccnc(Nc3cccc(C(C)O)c3)n2)s1 (stereo not shown) : > 6.00

The value of pIC50 measured for the compound CCOc1ccn(-c2ccc(F)cc2)c(=O)c1C(=O)Nc1ccc(Oc2ccnn3ccc(-c4cccc(C=O)c4)c23)c(F)c1 turned out to be > 7.40

The measured pIC50 associated with COc1cc2c(Oc3c(F)cc(NC(=O)c4cnccc4OC)cc3F)ccnc2cc1OCCCN1CCOCC1 reads ≥ 7.00

Short answer for CN1CCN(Cc2ccc(-c3cc4c(s3)Cc3c(-c5ccc6cnn(C)c6c5)n[nH]c3-4)cc2)CC1 : pIC50 was < 6.00

// pIC50 value for Cn1ncc2ccc(-c3n[nH]c4c3Cc3sc(-c5ccc(CN6CC(F)(F)C6)cc5)cc3-4)cc21 : < 6.00

Record summary for CN1CCC(COc2cnc(-c3cccc(Cn4c(=O)sc5ccc(C(F)(F)F)cc54)c3)nc2)CC1 : reported pIC50 = 6.00 to 8.00

Lab note: COc1cc(CN2CCOCC2)ccc1-c1cc2c(s1)Cc1c(-c3ccc4cnn(C)c4c3)n[nH]c1-2 gave pIC50 of < 6.00

----------
A compilation of IC50 values for Hepatocyte growth factor receptor (Homo sapiens, UniProt P08581) from the published literature.

Previously resolved entries follow.
COc1ccc(-c2cc3c(s2)Cc2c(-c4ccc5[nH]ncc5c4)n[nH]c2-3)cn1 | > 1000 nM
CCOC(=O)Nc1cccc(Cn2nc(-c3ccc(C(=O)NCCN4CCOCC4)cc3)ccc2=O)c1 | 10 to 1000 nM
Clc1cccc(Cl)c1CN1CCNc2ncc(I)cc21 | 10000 to 100000 nM

Tested system Hepatocyte growth factor receptor (Homo sapiens, UniProt P08581); IC50 recorded for COc1ccc(F)cc1C(C)Oc1cc(-c2cnnn2CCO)cnc1N (centres unmarked) was > 20000 nM

Simply: Nc1ncc(-c2ccc(OCC(=O)NCc3ccccc3)cc2)cc1-c1nc2ccccc2s1 , Hepatocyte growth factor receptor (Homo sapiens, UniProt P08581), IC50 = 1000 to 20000 nM

Entry COc1ccc(-c2cc3c(s2)Cc2c(-c4ccc5cnn(C)c5c4)n[nH]c2-3)cn1 ; assay system Hepatocyte growth factor receptor (Homo sapiens, UniProt P08581); IC50 recorded at > 1000 nM

Note to self: IC50 of Cn1cc(-c2ccc3nnc(Cc4cc(F)c5ncccc5c4)n3n2)cn1 with Hepatocyte growth factor receptor (Homo sapiens, UniProt P08581) was 1000 to 10000 nM

Observed IC50 on Hepatocyte growth factor receptor (Homo sapiens, UniProt P08581), entry Nc1nccc(Oc2ccc(NC(=O)c3cc4ncsc4n(-c4ccccc4CCO)c3=O)cc2F)c1Cl , equals < 10 nM

Hepatocyte growth factor receptor (Homo sapiens, UniProt P08581) assay, compound CCOC(=O)c1cncc(-c2cnc3c(c2)N(Cc2cc(F)ccc2F)CCN3)c1 , recorded IC50 = 10000 to 100000 nM

// compound Nc1ncc(-c2cnn(C3CCNCC3)c2)cc1-c1nc2c(C(F)(F)F)ccc(F)c2s1 , assay Hepatocyte growth factor receptor (Homo sapiens, UniProt P08581), IC50 value: 100 to 1000 nM

The reported IC50 value, Hepatocyte growth factor receptor (Homo sapiens, UniProt P08581), for O=C(Nc1ccc(F)cc1)C1(C(=O)Nc2ccc(Oc3ccnc4cc(OCC5CC5)c5c(c34)OCCO5)c(F)c2)CC1 reads 50 to 500 nM

For CC1=CC(C)=[N+]2C1=Cc1ccc(CCC(=O)NCCN3CCN(C/C=C/C(=O)N4CCC[C@@H](n5nc(-c6ccc(Oc7ccccc7)cc6)c6c(N)ncnc65)C4)CC3)n1[B-]2(F)F on Hepatocyte growth factor receptor (Homo sapiens, UniProt P08581), measured IC50 was 100000 nM

For CCOC(=O)Nc1cccc(Cn2nc(-c3ccc(C(=O)NCCN(CC)CC)cc3)ccc2=O)c1 on Hepatocyte growth factor receptor (Homo sapiens, UniProt P08581), measured IC50 was 10 to 1000 nM

Observed IC50 on Hepatocyte growth factor receptor (Homo sapiens, UniProt P08581), entry Cn1ncc2ccc(-c3n[nH]c4c3Cc3sc(-c5ccc(CN6CCCOCC6)cc5)cc3-4)cc21 , equals > 1000 nM

Observed IC50, Hepatocyte growth factor receptor (Homo sapiens, UniProt P08581), COc1cc2c(Oc3ccc(NC(=O)c4cc5ncsc5n(-c5ccccc5CCO)c4=O)cc3F)ccnc2cc1OCCCN1CCOCC1 : > 1000 nM

Response field IC50 (Hepatocyte growth factor receptor (Homo sapiens, UniProt P08581)) for item O=C(Nc1cn2nc(Sc3nnc4ccc(-c5ccc(N6CCOCC6)nc5)cn34)ccc2n1)C1CC1 : < 30 nM

Sample CC(Oc1cc(-c2ccnn2C)cnc1N)c1cc(F)ccc1C#N (single isomer, unassigned) , system: Hepatocyte growth factor receptor (Homo sapiens, UniProt P08581). Its IC50 is 6480 nM

Form: item Cn1cc(-c2cc(Oc3ccc(NC(=O)Nc4cnn(C(C)(C)C)c4)c(F)c3)ccn2)cn1 ; test system Hepatocyte growth factor receptor (Homo sapiens, UniProt P08581); IC50: < 10000 nM

Given the compound CC(C)Oc1cc2nccc(Oc3ccc(NC(=O)c4cn(C)c(=O)n(-c5ccc(F)cc5)c4=O)cc3F)c2c2c1OCCO2 and test system Hepatocyte growth factor receptor (Homo sapiens, UniProt P08581), the measured IC50 is ≤ 50 nM

With Hepatocyte growth factor receptor (Homo sapiens, UniProt P08581) as the test system, Clc1ccc2ncc3ncn(-c4ccccc4Cl)c3c2c1 showed IC50 of ≤ 500 nM

Tested on Hepatocyte growth factor receptor (Homo sapiens, UniProt P08581): Cc1cc(-c2cc(F)c(=O)n(Cc3cccc(-c4ncc(OCC5CCN(C)CC5)cn4)c3)c2)sn1 . Observed IC50: 2.9 nM

Recorded IC50 for O=C(Nc1cn2nc(Cn3nnc4ccc(-c5ccccc5)cc43)ccc2n1)C1CC1 on Hepatocyte growth factor receptor (Homo sapiens, UniProt P08581) was 60 to 100 nM
